Listed below: Resistance Factor, Ustilago avenae values for each entry.
tested on: Ustilago avenae (triadimefon-resistant and -sensitive strains); type: cell-based; conditions: EC50 resistant strain / EC50 sensitive strain, 50 to 54 hours
parameter: Resistance Factor, Ustilago avenae

# molecule, experimentalSystem, parameter, assayValue
records = [
    ("OC(c1ccc(Cl)cc1)(c1cncnc1)c1ccccc1Cl (centres unmarked) [Fenarimol, reference compound]", "Ustilago avenae (triadimefon-resistant and -sensitive strains)", "Resistance Factor, Ustilago avenae", 9.9),
    ("Fc1ccc(B(OC(Cn2ccnc2)c2ccc(Cl)cc2Cl)c2ccc(F)cc2)cc1 (centres unmarked)", "Ustilago avenae (triadimefon-resistant and -sensitive strains)", "Resistance Factor, Ustilago avenae", 2.6),
    ("Clc1ccc(C(OB(c2ccccc2)c2ccccc2)(c2cncnc2)c2ccccc2Cl)cc1 (centres unmarked)", "Ustilago avenae (triadimefon-resistant and -sensitive strains)", "Resistance Factor, Ustilago avenae", 1.3),
    ("Clc1ccc(C(Cn2ccnc2)OB(c2ccccc2)c2ccccc2)c(Cl)c1 (centres unmarked)", "Ustilago avenae (triadimefon-resistant and -sensitive strains)", "Resistance Factor, Ustilago avenae", 1.6),
    ("Clc1ccc(COC(Cn2ccnc2)c2ccc(Cl)cc2Cl)cc1 (centres unmarked) [Econazole nitrate, reference compound]", "Ustilago avenae (triadimefon-resistant and -sensitive strains)", "Resistance Factor, Ustilago avenae", 2.0),
    ("CC(C)(C)C(CCc1ccc(Cl)cc1)(Cn1cncn1)OB(c1ccccc1)c1ccccc1 (centres unmarked)", "Ustilago avenae (triadimefon-resistant and -sensitive strains)", "Resistance Factor, Ustilago avenae", 2.0),
    ("Clc1ccc(COC(Cn2ccnc2)c2ccc(Cl)cc2Cl)c(Cl)c1 (centres unmarked) [Miconazole nitrate, reference compound]", "Ustilago avenae (triadimefon-resistant and -sensitive strains)", "Resistance Factor, Ustilago avenae", 4.1),
    ("CC(C)(C)C(CCc1ccc(Cl)cc1)(Cn1cncn1)OB(c1ccc(F)cc1)c1ccc(F)cc1 (centres unmarked)", "Ustilago avenae (triadimefon-resistant and -sensitive strains)", "Resistance Factor, Ustilago avenae", 2.3),
]
